- Experimental Setup: in methanol, 318.15 K

- Entry Smiles: "Nc1ccc(Cc2ccc(N)c(Cl)c2)cc1Cl"
  solubility (mole fraction): 0.0405

---

- Experimental Setup: in ethylene glycol, 308.15 K
Measurement Type: solubility (mole fraction)

- Entry Smiles: "Nc1ccc(Cc2ccc(N)c(Cl)c2)cc1Cl"
  Endpoint Value: 0.0148

---

- Experimental Setup: in ethanol, 323.15 K

- Entry Smiles: "Nc1ccc(Cc2ccc(N)c(Cl)c2)cc1Cl"
  solubility (mole fraction): 0.0677

---

- Experimental Setup: in acetonitrile, 293.15 K

- Entry Smiles: "Nc1ccc(Cc2ccc(N)c(Cl)c2)cc1Cl"
  solubility (mole fraction): 0.0251

---

- Experimental Setup: in ethyl acetate, 308.15 K

- Entry Smiles: "Nc1ccc(Cc2ccc(N)c(Cl)c2)cc1Cl"
  solubility (mole fraction): 0.177

---

- Experimental Setup: in ethylene glycol, 288.15 K

- Entry Smiles: "Nc1ccc(Cc2ccc(N)c(Cl)c2)cc1Cl"
  solubility (mole fraction): 0.00624

---

- Experimental Setup: in 1,4-dioxane, 318.15 K
Measurement Type: solubility (mole fraction)

- Entry Smiles: "Nc1ccc(Cc2ccc(N)c(Cl)c2)cc1Cl"
  Endpoint Value: 0.354

---

- Experimental Setup: in DMAc, 298.15 K

- Entry Smiles: "Nc1ccc(Cc2ccc(N)c(Cl)c2)cc1Cl"
  solubility (mole fraction): 0.384

---

- Experimental Setup: in isopropanol, 288.15 K
Measurement Type: solubility (mole fraction)

- Entry Smiles: "Nc1ccc(Cc2ccc(N)c(Cl)c2)cc1Cl"
  Endpoint Value: 0.0203

---

- Experimental Setup: in n-propanol, 318.15 K
Measurement Type: solubility (mole fraction)

- Entry Smiles: "Nc1ccc(Cc2ccc(N)c(Cl)c2)cc1Cl"
  Measurement Type: "solubility (mole fraction)"
  Endpoint Value: 0.066

---

- Experimental Setup: in water, 283.15 K

- Entry Smiles: "Nc1ccc(Cc2ccc(N)c(Cl)c2)cc1Cl"
  solubility (mole fraction): 0.00014

---

- Experimental Setup: in DMAc, 303.15 K
Measurement Type: solubility (mole fraction)

- Entry Smiles: "Nc1ccc(Cc2ccc(N)c(Cl)c2)cc1Cl"
  Endpoint Value: 0.41

---

- Experimental Setup: in DMAc, 308.15 K
Measurement Type: solubility (mole fraction)

- Entry Smiles: "Nc1ccc(Cc2ccc(N)c(Cl)c2)cc1Cl"
  Endpoint Value: 0.436

---

- Experimental Setup: in water, 293.15 K

- Entry Smiles: "Nc1ccc(Cc2ccc(N)c(Cl)c2)cc1Cl"
  solubility (mole fraction): 0.000228

---

- Experimental Setup: in ethanol, 293.15 K

- Entry Smiles: "Nc1ccc(Cc2ccc(N)c(Cl)c2)cc1Cl"
  solubility (mole fraction): 0.0272

---

- Experimental Setup: in DMAc, 318.15 K

- Entry Smiles: "Nc1ccc(Cc2ccc(N)c(Cl)c2)cc1Cl"
  solubility (mole fraction): 0.502

---

- Experimental Setup: in methanol, 293.15 K
Measurement Type: solubility (mole fraction)

- Entry Smiles: "Nc1ccc(Cc2ccc(N)c(Cl)c2)cc1Cl"
  Endpoint Value: 0.02

---

- Experimental Setup: in isobutanol, 283.15 K

- Entry Smiles: "Nc1ccc(Cc2ccc(N)c(Cl)c2)cc1Cl"
  solubility (mole fraction): 0.0136

---

- Experimental Setup: in n-propanol, 323.15 K

- Entry Smiles: "Nc1ccc(Cc2ccc(N)c(Cl)c2)cc1Cl"
  solubility (mole fraction): 0.0783
